system: CCRIS mutagenicity, Ames/micronucleus/aberration tests; experiment: CCRIS mutagenicity studies; settings: Test System: AMES SALMONELLA TYPHIMURIUM; Strain/Indicator: TA98; Metabolic Activation: NONE; Method: PREINCUBATION
Calls of active or inactive are those of the source. How the calls were made is not given here.
Labels: active, inactive

{"compound": "CC(=O)Nc1cccc2cccnc12", "qualitative-label": "inactive"}
{"compound": "Nc1nc(-c2ccc([N+](=O)[O-])cc2)nc2nc[nH]c12", "qualitative-label": "active"}
{"compound": "C=C(C)C(=O)OCC", "qualitative-label": "inactive"}
{"compound": "CC(C)CC=O", "qualitative-label": "inactive"}
{"compound": "Nc1cccc(S(=O)(=O)O)c1", "qualitative-label": "inactive"}
{"compound": "CN1C(=O)CN=C(c2ccccc2)c2cc(Cl)ccc21", "qualitative-label": "inactive"}
{"compound": "O=C1c2ccccc2C(=O)c2c1ccc(O[C@@H]1O[C@H](CO[C@@H]3OC[C@@H](O)[C@H](O)[C@H]3O)[C@@H](O)[C@H](O)[C@H]1O)c2O", "qualitative-label": "inactive"}
{"compound": "O=c1ccc2c(cc3ccc4cccc5ccc2c3c45)c1=O", "qualitative-label": "inactive"}
{"compound": "NCCS(=O)(=O)O", "qualitative-label": "inactive"}
{"compound": "Nc1ccc(Oc2ccccc2)cc1", "qualitative-label": "inactive"}
{"compound": "C1CC2OC2CC1C1CO1 (stereo not given)", "qualitative-label": "active"}
{"compound": "c1ccc(-c2ccccc2)cc1", "qualitative-label": "inactive"}
{"compound": "O=C(O)c1ccccc1Cl", "qualitative-label": "inactive"}
{"compound": "NC(=O)CCCCC(N)=O", "qualitative-label": "inactive"}
{"compound": "CC(Cl)CCl (stereo not given)", "qualitative-label": "inactive"}
{"compound": "Cc1ccc(C(=O)c2cc(O)c(O)c([N+](=O)[O-])c2)cc1", "qualitative-label": "inactive"}
{"compound": "CC(=O)Nc1ccc(Oc2ccc([N+](=O)[O-])cc2)cc1", "qualitative-label": "active"}
{"compound": "O.O.O=C([O-])C(=O)[O-].O=C([O-])C(=O)[O-].[K+].[K+].[Pt+2]", "qualitative-label": "inactive"}
{"compound": "Cc1ccc(N)c(S(=O)(=O)O)c1", "qualitative-label": "inactive"}
{"compound": "COc1ccc(OC)c(N=Nc2c(O)ccc3ccccc23)c1", "qualitative-label": "inactive"}
{"compound": "Cn1cnc([N+](=O)[O-])c1Sc1ncnc2nc[nH]c12", "qualitative-label": "inactive"}
{"compound": "O=C(O)c1cc([N+](=O)[O-])ccc1[N+](=O)[O-]", "qualitative-label": "active"}
{"compound": "COS(=O)(=O)OC", "qualitative-label": "active"}
{"compound": "O=C=NCCCCCCN=C=O", "qualitative-label": "inactive"}
{"compound": "CC(=O)Nc1cccc(O)c1", "qualitative-label": "inactive"}
{"compound": "CCOC(N)=O", "qualitative-label": "inactive"}
{"compound": "N#CCC#N", "qualitative-label": "inactive"}
{"compound": "CCC(C)(C)C", "qualitative-label": "inactive"}
{"compound": "CNC(=O)ON=CC(C)(C)SC", "qualitative-label": "inactive"}
{"compound": "Cc1cccc(C)c1[N+](=O)[O-]", "qualitative-label": "inactive"}
